These data points were gathered from patent US20200247894A1.

I'd be grateful if you could share measured 100 nM Ag Bound (RU) for these entries.
Target: T1, Human IL2Rγ extracellular domain expressed with a C-terminal myc-myc-hexahistidine tag (human)
T1 construct: also called hIL-2Rg-MMH; hIL-2RG-MMH
T1 chain: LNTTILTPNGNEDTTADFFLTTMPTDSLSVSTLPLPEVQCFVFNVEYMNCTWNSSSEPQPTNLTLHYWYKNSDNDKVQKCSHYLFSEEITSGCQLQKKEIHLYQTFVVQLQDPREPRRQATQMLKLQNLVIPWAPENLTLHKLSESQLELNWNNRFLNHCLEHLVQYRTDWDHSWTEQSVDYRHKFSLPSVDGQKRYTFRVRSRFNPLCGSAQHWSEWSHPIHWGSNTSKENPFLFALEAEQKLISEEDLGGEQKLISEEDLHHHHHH
Test: SPR, captured mAb, 25C, dissociation pH 7.4
Method: The dissociation rate constant (kd) for binding of IL-2Rγ reagents to purified anti-IL2Rγ monoclonal antibodies was determined using a real-time surface plasmon resonance based Biacore 4000 biosensor platform. […] Dissociation rate constants (kd) in two running buffers were determined by fitting the real-time binding sensorgrams to a 1:1 binding model using Scrubber 2.0c curve-fitting software. […]
Provide the reading as a plain figure in RU.

May I ask what 100 nM Ag Bound (RU) has been recorded for H4H12858P (antibody, human IgG4 S228P, kappa, V domains shown, anti-IL2Rgamma mAb expressed with human IgG4 Fc; also called REGN9433) VH: EVQLVESGGDLVQPGGSLRLSCTASGFIFRNYAMNWVRQAPGKGLEWLSGILGSNDNTYYVDSVKGRFTISRDNSRNTLYLQMNSLRAEDSAVYYCAKGDAGGFDYWGQGTLVTVSS VL: DVVMTQSPLSLPVILGQPASISCRSSQSLVSSDGNTYLNWFQQRPGQSPRRLIYKVSNRDSGVPDRFSGSGSGTDFTLKISRVEAEDVGAYYCMQGSYWPPTFGQGTKLEIKR ?
111

Consider the binder shown here: H4H12884P (antibody, human IgG4 S228P, kappa, V domains shown, anti-IL2Rgamma mAb expressed with human IgG4 Fc) VH: QVQLQESGPGLVKPSQTLSLTCTVSGGSISSGGYYWSWIRQHPGKGLEWIGFIYYSGKTYYNPSLKSRLTISVDTSKSQFSLKLRSVTAADTAVYYCARLGYTNSAGWFDPWGQGTLVTVSS VL: DIQMTQSPSSLSASVGDRVTITCRASQSISSYLNWYQQKPGKAPNLLIYAASSLQSGVPSRFSGSGSGTDFTLTISSLQPEDLATYYCQQSYTTPFTFGPGTKVDIKR What is its recorded 100 nM Ag Bound (RU)?
161

// returns reported 100 nM Ag Bound (RU) for input H4H12863P (antibody, human IgG4 S228P, kappa, V domains shown, anti-IL2Rgamma mAb expressed with human IgG4 Fc) VH: QVQLVESGGGVVQPGRSLRLSCTASGFTFRSYDMYWVRQAPGKGLEWVSVITYDGNNKYYADSVKGRFTISRDNSKNTLFLQMSSLRPEDTAVYYCAKRGLIWVGESFDYWGQGTLVTVSS VL: DIQMTQSPSTLSASVGDRVTITCRASQSINSWLAWYQQKPGKAPNLLIYKASSLESGVPSRFSGSGSGTEFTLTISSLQPDDFATYYCQQYKSYSWTFGQGTKVEIKR
151

Fill in the blank: the reported 100 nM Ag Bound (RU) of H4H12899P (antibody, human IgG4 S228P, kappa, V domains shown, anti-IL2Rgamma mAb expressed with human IgG4 Fc) VH: QVQLVESGGDLVKPGGSLRLSCATSGFTFSDFYMTWIRQAPGKGLEWISYISNSGSIVKYADSVKGRFTISRDNAKNSLYLQMNSLRAEDTAIYYCARFYGDRWGQGTLVTVSS VL: DIQLTQSPSFLSASVGDRVTITCWASQGISTFLAWYQQKPGKAPKLLIYAASTLQSGVPSRFSGSGSGTDFTLTISSLQPEDFATYHCQQLNNYPWTFGQGTKVEIKR is ____.
118

// lookup 100 nM Ag Bound (RU) for H4H13541P (antibody, human IgG4 S228P, kappa, V domains shown, anti-IL2Rgamma mAb expressed with human IgG4 Fc) VH: EVQLVESGGGVVRPGGSLRLSCAASGFIFDDYDMSWVRQPPGRGLEWVSGIDWFGGTRGYADSMKGRFTISRDNAKNSLYLQMNSLRVEDTAFYYCARGGAIVGAVTPFDYWGQGTLVTVSS VL: DIQMTQSPSSLSASVGNRVTLSCRASQSINTYLSWYQQRPGKAPKLLIYAASSLQSGVPSRFSGSGAGTDFTLTISSLQPEDFATYYCQQSYSAPLTFGGGTKVEIKR
72
